# System: Plasmodium falciparum
# methodSummary: Screen against P. falciparum Asexual Blood Stage (ABS), at 5uM
# Assay type: functional, Dd2
# particulars: tested at 5 uM
Among all 65,000 compounds or so, about 2,100 (3.2%) showed an effect of 50% or more. The median lay at about -52%. Many of the other results were omitted from the sample, so strong results are more common in it than they were.
measuredEndpoint: INHIBITION (%)
Field: numeric (%). Do not append units.

// solved cases for INHIBITION follow
1) CC(C1CCN(Cc2ccc(OC(F)F)cc2)CC1)N1CCOCC1 (configuration not stated) : -26.3
2) c1ccc(-c2cc(CNCCN3CCCC3)c3nnnn3c2)cc1 : -1.88
3) CC(C)Oc1cccc(CN2CCC(c3n[nH]c4ncccc34)CC2)c1 : -51.3
4) Cc1nc(N)ncc1C(=O)N1CCCC(CCc2ccc(F)cc2)C1 (configuration not stated) : 38
5) CNS(=O)(=O)c1cccc(C(C)NCc2ccco2)c1 (configuration not stated) : 2.96

Record CNS(=O)(=O)c1cccc(C(C)NCc2ccc(F)c(F)c2)c1 (configuration not stated) ; system Plasmodium falciparum; INHIBITION = 11.1

Record CCN1C[C@H]2[C@@H](C1)N(S(=O)(=O)c1ccccc1)CC[C@H]2OC ; system Plasmodium falciparum; INHIBITION = 62.8

Record CC(C)(O)CSCCNCc1ccc(Cl)c2cccnc12 ; system Plasmodium falciparum; INHIBITION = 67.7

Record Cc1ccc2c(c1)C(NCc1ncnn1C)CC2 (configuration not stated) ; system Plasmodium falciparum; INHIBITION = -64.9

---

# Test system: Plasmodium falciparum
# methodSummary: Screen against P. falciparum Asexual Blood Stage (ABS), at 5uM
# Type: functional, Dd2
# particulars: tested at 5 uM
In all, about 65,000 compounds went through this assay and about 2,100 (3.2%) showed an effect of 50% or more. The median lay at about -52%. For the sample, strong results were picked, then their nearest neighbours and some compounds at random.
// classify(record): look up INHIBITION in ranges bucket A = under -20%, bucket B = from -20% up to 40%, bucket C = 40% and over

1) COc1ccccc1-c1ncc(CN2C[C@@H](N(C)C)[C@H](C(C)C)C2)s1 : bucket C
2) Cc1ccc(C(=O)N2Cc3ccccc3OC3(CCOCC3)C2)cn1 : bucket A
3) COc1ccccc1-c1ncc(CN2C[C@H](O)[C@@H](N3CCCC3)C2)s1 : bucket B
4) COCCCN1CCN([C@@H]2c3ccccc3C3(CCNCC3)[C@H]2O)CC1 : bucket A

Please let me know in which category the item N#CCCN(C(=O)CN1CCCC1c1ccsc1)c1ccccc1F (stereo unspecified) belongs.
bucket C

Please let me know in which category the item OCCCNc1nc(O)c2c(n1)-c1ccccc1CC21CCCCC1 belongs.
bucket B

Please let me know in which category the item C=Cc1ccc(CN2C(=O)C3(CCNCC3)Nc3ccccc32)cc1 belongs.
bucket C

Please let me know in which category the item CC(C)c1cncnc1-c1cc(F)cc2c1OC(CN)C2 (stereo unspecified) belongs.
bucket B

Please let me know in which category the item NCC1Cc2cc(-c3cncc(C(=O)N4CCOCC4)n3)cc(Cl)c2O1 (stereo unspecified) belongs.
bucket B

Please let me know in which category the item CN(C)CC1CSCCCN1C(=O)Nc1ccc(C(C)(C)C)cc1 (stereo unspecified) belongs.
bucket B

Please let me know in which category the item CN(C)CC1CSCCCN1S(=O)(=O)c1ccc(C(F)(F)F)cc1 (stereo unspecified) belongs.
bucket C

Please let me know in which category the item Cc1nc(C)c(C(C)NCc2c(C)nn(CC(C)C)c2N(C)C)s1 (stereo unspecified) belongs.
bucket A

---

# Tested on: Plasmodium falciparum
# methodSummary: Screen against P. falciparum Asexual Blood Stage (ABS), at 5uM
# Type: functional, Dd2
# particulars: tested at 5 uM
The campaign covered roughly 65,000 compounds. About 2,100 (3.2%) showed an effect of 50% or more. The median lay at about -52%. Only a selection was taken, and strong results are over-represented in it overall.
Label scheme for INHIBITION: lower than -40% is Not fulfilled, -40% and above is Fulfilled.

Determine whether this compound has INHIBITION no lower than -40%: Cn1ccnc1CN1C[C@@H](CN2CCC(CO)CC2)[C@@H](CO)C1
Fulfilled

Determine whether this compound has INHIBITION no lower than -40%: O=C(N1CCN(CCO)CC1)C1(O)Cc2ccccc2C1
Fulfilled

Determine whether this compound has INHIBITION no lower than -40%: O=C(c1c(F)cc(Br)cc1F)N1CCc2cnccc21
Not fulfilled

Determine whether this compound has INHIBITION no lower than -40%: Cc1cccc(CC(=O)N2CCCC(c3n[nH]c4nccnc34)C2)c1 (configuration not stated)
Fulfilled

Determine whether this compound has INHIBITION no lower than -40%: CCO[C@H]1C[C@@H](O)C12CCN(C(=O)CC(F)(F)F)CC2
Not fulfilled

Determine whether this compound has INHIBITION no lower than -40%: OC[C@H]1CN(C2Cc3ccccc3C2)C[C@H]1CN1CCC(O)CC1
Fulfilled

Determine whether this compound has INHIBITION no lower than -40%: O=C(N1CCSCC1)C1(O)Cc2ccccc2C1
Not fulfilled

Determine whether this compound has INHIBITION no lower than -40%: COc1ccc(-n2ccc(CNCc3ccc(OC)c(O)c3)n2)cc1
Fulfilled

Determine whether this compound has INHIBITION no lower than -40%: CNc1cccc(C2CCCN(C(=O)Cc3ccccc3)C2)n1 (configuration not stated)
Not fulfilled

Determine whether this compound has INHIBITION no lower than -40%: CC(=O)N1CCCC(c2cccc(-n3ccnc3)n2)C1 (configuration not stated)
Not fulfilled

Determine whether this compound has INHIBITION no lower than -40%: Fc1cccc(N2C[C@H]3CCN(c4cccnc4)C[C@H]3C2)c1
Fulfilled

---

# reported INHIBITION; entries follow
# Test system: Plasmodium falciparum
# methodSummary: Screen against P. falciparum Asexual Blood Stage (ABS), at 5uM
# Format: functional, Dd2
# particulars: tested at 5 uM
About 2,100 (3.2%) of roughly 65,000 compounds showed an effect of 50% or more. The median lay at about -52%. This excerpt belongs to a sample that is enriched for strong results.
Field: numeric (%). Do not append units.

1) CNc1nc(N2CCN(Cc3ccsc3)C(CCO)C2)nc2c1CCC2 (centres undefined) : 55.7
2) COCCCNC(=O)CN1CCOC(c2ccccc2)C1 (centres undefined) : -41.4

Record CN(Cc1ccco1)C1CCC12CCN(C(=O)c1ccnnc1)CC2 (centres undefined) ; system Plasmodium falciparum; INHIBITION = 53.3

Record CN(Cc1ccco1)[C@@H]1CN(Cc2ccncc2)C[C@@H]2CCCO[C@@H]21 ; system Plasmodium falciparum; INHIBITION = 9.86

---

# System: Plasmodium falciparum
# methodSummary: Screen against P. falciparum Asexual Blood Stage (ABS), at 5uM
# Format: functional, Dd2
# particulars: tested at 5 uM
Out of some 65,000 compounds screened, about 2,100 (3.2%) showed an effect of 50% or more. The median lay at about -52%. For the sample, strong results were picked, then their nearest neighbours and some compounds at random.
Response field label takes satisfied when INHIBITION is strictly below -40% and not satisfied in all other cases.

These solved cases illustrate the format of a correct answer.
1. O=C(NCCN1CCCCC1)c1scnc1Cl : satisfied
2. CCCC(=O)N1CC[C@@H]2[C@H](CC1)N(Cc1cccc(C)n1)CCS2(=O)=O : satisfied
3. CCCNCc1cc2c(C)cc(C)cc2n2c(=O)n(C)nc12 : not satisfied
4. CCOCc1cncc2c1CCN(C(=O)c1cscn1)C2 : satisfied
5. CCc1cnc(CN(C)C(=O)Nc2cnn(CC3CCCO3)c2)s1 (stereo not given) : satisfied

API: query returns whether the compound falls strictly under -40% in INHIBITION. Query: O=C(NCCN1CCCCC1)c1cccc(Cl)c1Cl
not satisfied

API: query returns whether the compound falls strictly under -40% in INHIBITION. Query: COCCNCc1cc2c(C)cc(C)cc2n2c(=O)n(C)nc12
satisfied

API: query returns whether the compound falls strictly under -40% in INHIBITION. Query: CC(C)N1CCc2[nH]nc(C(=O)N3CCN(C)CC3)c2C1
not satisfied

API: query returns whether the compound falls strictly under -40% in INHIBITION. Query: CN1Cc2nc[nH]c2C[C@H]1C(=O)NC1CCCCC1
not satisfied

API: query returns whether the compound falls strictly under -40% in INHIBITION. Query: O=S(=O)(N1CCCC1)N1CC[C@H](c2ccccc2)[C@H]2NCCCC[C@H]21
not satisfied

---

# Tested on: Plasmodium falciparum
# methodSummary: Screen against P. falciparum Asexual Blood Stage (ABS), at 5uM
# Assay type: functional, Dd2
# particulars: tested at 5 uM
Screen size: about 65,000 compounds; about 2,100 (3.2%) showed an effect of 50% or more. The median lay at about -52%. This excerpt belongs to a sample that is enriched for strong results.
measuredEndpoint: INHIBITION (%)
Field: numeric (%). Do not append units.

// solved cases for INHIBITION follow
1) CC(C)(C(=O)NCC1CCN(Cc2cccnc2)C1)c1ccccc1 (stereo unspecified) : 53.2
2) CCC(CN1CCCC1)n1cncc1-c1cnn(-c2ccccc2)c1 (stereo unspecified) : 56.2
3) O=C(NCCc1cccs1)[C@]12COC[C@H]1CN(Cc1ccncc1)C2 : -31
4) COc1ccccc1CN1C[C@@H]2COC[C@]2(COc2cccnc2)C1 : 52.9

Looking up CC(=O)Nc1nc(C(=O)N2CCCC(n3cncn3)C2)cs1 (stereo unspecified) , I found its INHIBITION recorded as -101

Looking up COC1CCN(CCNc2ncc(Br)cc2C)CC1 , I found its INHIBITION recorded as 60.6

Looking up NC(=O)C1(Cc2ccccc2-c2cncnc2)CCCNC1 (stereo unspecified) , I found its INHIBITION recorded as -114

Looking up Cn1cc(CNCCn2cccn2)c(-c2cccnc2)n1 , I found its INHIBITION recorded as -42
